# target-desc: T1, human FLT3 (hFLT3) expressed on cells (human, UniProt P36888 27-993)
# T1 construct: whole, on cells; One molecule for all cell lines that carry human FLT3; also called RMA-hFLT3; FLT3 on REH cells
# T1 sequence (looked up): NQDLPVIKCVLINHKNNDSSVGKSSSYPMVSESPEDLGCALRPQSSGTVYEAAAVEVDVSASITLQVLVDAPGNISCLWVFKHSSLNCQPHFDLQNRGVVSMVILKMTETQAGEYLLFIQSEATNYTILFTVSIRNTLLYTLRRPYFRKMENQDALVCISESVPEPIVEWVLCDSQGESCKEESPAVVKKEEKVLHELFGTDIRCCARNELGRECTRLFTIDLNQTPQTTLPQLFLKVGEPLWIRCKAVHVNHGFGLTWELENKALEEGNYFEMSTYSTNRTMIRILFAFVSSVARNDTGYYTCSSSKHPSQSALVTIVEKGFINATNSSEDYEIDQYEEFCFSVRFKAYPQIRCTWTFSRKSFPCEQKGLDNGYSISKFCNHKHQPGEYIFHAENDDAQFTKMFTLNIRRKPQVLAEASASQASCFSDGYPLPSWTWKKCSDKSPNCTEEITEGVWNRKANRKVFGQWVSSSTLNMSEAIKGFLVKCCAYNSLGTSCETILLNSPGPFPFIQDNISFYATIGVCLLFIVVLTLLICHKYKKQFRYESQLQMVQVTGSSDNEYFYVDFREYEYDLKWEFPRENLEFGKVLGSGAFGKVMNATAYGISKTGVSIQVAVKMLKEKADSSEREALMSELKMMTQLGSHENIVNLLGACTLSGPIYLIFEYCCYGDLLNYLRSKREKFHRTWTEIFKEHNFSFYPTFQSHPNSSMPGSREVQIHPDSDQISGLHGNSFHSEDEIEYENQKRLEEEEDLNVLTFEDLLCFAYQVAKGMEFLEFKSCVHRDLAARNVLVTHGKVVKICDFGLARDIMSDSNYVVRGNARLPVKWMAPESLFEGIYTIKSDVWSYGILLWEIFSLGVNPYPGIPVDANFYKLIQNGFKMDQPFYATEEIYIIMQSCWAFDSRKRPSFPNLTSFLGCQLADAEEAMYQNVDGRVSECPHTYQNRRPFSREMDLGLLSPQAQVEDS
# assay-comment: flow cytometry, purified mAb on SEM cells
endpoint-name: Max MFI

// lookup Max MFI for 4A4.A3 (antibody, V domains shown, Purified murine mAb from a hybridoma subclone) VH: QVTLKESGPGILQPSQTLSLTCSFSGFSLTTYGMGVGWIRQPSGKGLEWLANIWFNDNKYYNSTLKSRLTISKDTSNNQVFLKISSVDTTDTATYYCAQITTVVGTFDYWGQGSPLTVSP VL: RIVMTQSPTTMAASPGEKITITCSASSSISSIYLHWYQQKPGFSPKLLIFRTSDLASGVPPRFGGSGSGTSYSLTIGTMEAEDVATYYCQQGSSFPRTFGGGTKLEIK
2350 MFI

// lookup Max MFI for 12H10.G7 (antibody, V domains shown, Purified murine mAb from a hybridoma subclone) VH: EVQLQESGPELVKPGASVKMSCKASGYTFTRYVMHWVKQRPGQGLEWIGFINPYNDDTKYNEKFKGKATLTSDKSSSTAYMELSSLTSEDSAVYHCARWRQLGSLDSWGQGTTLTVSS VL: NIVLTQSPASLAVSLGQRATISCRASESVDTYGSSFVHWYQQKPGQPPKLLIYLASNLESGVPARFSGSGSRSDFTLTIDPVEADDAATYYCQQNNEEPWTFGGGTKLEIK
2830 MFI
